Values from the RNAGym collection of RNA variant scans (doi:10.7554/elife.90254)

B1: LINE1-full (parent)
chain: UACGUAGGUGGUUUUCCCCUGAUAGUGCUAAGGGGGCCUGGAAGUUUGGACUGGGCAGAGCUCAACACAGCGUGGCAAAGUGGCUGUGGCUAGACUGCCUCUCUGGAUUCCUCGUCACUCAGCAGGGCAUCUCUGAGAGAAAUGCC

variants of: B1; assay: self-cleavage, relative activity (ratio to wild type); higher = more cleavage; in vitro, sequencing; the parent is a self-cleaving ribozyme
property: self-cleavage
Reply briefly: the number, and no unit.

Before answering, review these 2 worked examples.
Summary for this variant, A31C A79G : self-cleavage is 1.02

Summary for this variant, A57G A92U : self-cleavage is 0.3

Further cases:
Summary for this variant, A124G U143A : self-cleavage is 0.98
